Target: BRD3 BD2 (Homo sapiens (Human), UniProt Q15059)
Sequence (Q15059 306-415): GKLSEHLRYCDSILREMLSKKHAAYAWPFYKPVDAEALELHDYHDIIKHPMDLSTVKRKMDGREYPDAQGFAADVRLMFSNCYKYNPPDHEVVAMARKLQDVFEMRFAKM
Experiment: FP competitive binding assay using Cpd. No. 350 as the probe
Settings: read-out: BRD3 BD2 Ki; FP, Cpd. No. 350 probe […]
parameter-measured: Ki (nM)
Answer format: numeric, nM implied, no suffix.

Solved cases below.
smiles-code: COc1cc2c(cc1-c1c(C)noc1C)[nH]c1ccnc(Cl)c12
parameter-measured: Ki
reported-measurement: 63.8
//
smiles-code: COc1cc2c(cc1-c1c(C)noc1C)[nH]c1nc(C)nc(-c3ccc(C(=O)NC4CCN(C5COC5)CC4)c4ccccc34)c12
parameter-measured: Ki
reported-measurement: 1.3
//
smiles-code: CCc1noc(C)c1-c1cc2[nH]c3ccnc(Cl)c3c2cc1OC
parameter-measured: Ki
reported-measurement: 406

Case COc1cc2c(cc1-c1c(C)noc1C)[nH]c1nc(C)nc(-c3cc(C(=O)NC4CCN(C5COC5)CC4)[nH]c3C(C)C)c12 , BRD3 BD2 (Homo sapiens (Human), UniProt Q15059), Ki recorded as 2.2

The observed Ki for CCc1noc(CC)c1-c1cc2[nH]c3ccnc(Cl)c3c2cc1OC when tested with BRD3 BD2 (Homo sapiens (Human), UniProt Q15059) stands at 3440

Item COc1cc2c(cc1-c1c(C)noc1C)[nH]c1nc(C)nc(-c3c(C)[nH]c4ccccc34)c12 ; assay system BRD3 BD2 (Homo sapiens (Human), UniProt Q15059); Ki reported as 0.65

The observed Ki for COc1cc2c(cc1-c1c(C)noc1C)[nH]c1ccnc(-c3c(C)nn(-c4ccccc4)c3C)c12 when tested with BRD3 BD2 (Homo sapiens (Human), UniProt Q15059) stands at 35

Ki value, target or system BRD3 BD2 (Homo sapiens (Human), UniProt Q15059), for COc1cc2c(cc1-c1c(C)noc1C)[nH]c1nc(C)nc(-c3cc(C(=O)NC4CCN(C)CC4)[nH]c3C(C)C)c12 : 1.2

====

Molecular target: BRD4 BD1 (Homo sapiens (Human))
Assay: FP competitive binding assay using Cpd. No. 350 as the probe
Conditions: read-out: BRD4 BD1 Ki; FP, Cpd. No. 350 probe […]
parameter-measured: pKi
// returns pKi (minus log10 of molar concentration), number only

smiles-code: COc1cc2c(cc1-c1c(C)noc1C)[nH]c1ccncc12
study-system: BRD4 BD1 (Homo sapiens (Human))
parameter-measured: pKi
reported-measurement: 5.78

smiles-code: CCc1noc(C)c1-c1cc2[nH]c3ccnc(Cl)c3c2cc1OC
study-system: BRD4 BD1 (Homo sapiens (Human))
parameter-measured: pKi
reported-measurement: 5.91

smiles-code: COc1cc2c(cc1-c1c(C)noc1C)[nH]c1nc(C)nc(-c3cc(C(=O)NC4CCN(C)CC4)[nH]c3C(C)C)c12
study-system: BRD4 BD1 (Homo sapiens (Human))
parameter-measured: pKi
reported-measurement: 7.76

The compound COc1cc2c(cc1-c1c(C)noc1C)[nH]c1ccnc(-c3c(C)nn(-c4ccccc4)c3C)c12 showed pKi equal to 6.99

pKi reported for this compound COc1cc2c(cc1-c1c(C)noc1C)[nH]c1nc(C)nc(-c3cccc(C(C)(C)O)c3)c12 : 8.10

Field pKi (entry COc1cc2c(cc1-c1c(C)noc1C)[nH]c1nc(C)nc(-c3c(C)[nH]c4ccccc34)c12 ) reads 8.14

compound COc1cc2c(cc1-c1c(C)noc1C)[nH]c1ccnc(Cl)c12 , pKi observed: 6.52

Value of pKi reported for the compound COc1cc2c(cc1-c1c(C)noc1C)[nH]c1nc(C)nc(-c3ccc(C(=O)NC4CCN(C5COC5)CC4)c4ccccc34)c12 is 7.77

====

Ki values for the compounds below.
Molecular target: BRD4 BD2 (Homo sapiens (Human))
Experiment: FP competitive binding assay using Cpd. No. 350 as the probe
Answer format: numeric, nM implied, no suffix.

smiles-code: COc1cc2c(cc1-c1c(C)nn(C)c1C)[nH]c1ccnc(-c3c(C)nn(C)c3C)c12
study-system: BRD4 BD2 (Homo sapiens (Human))
output-unit: nM
Ki: 867

smiles-code: COc1cc2c(cc1-c1c(C)noc1C)[nH]c1ccncc12
study-system: BRD4 BD2 (Homo sapiens (Human))
output-unit: nM
Ki: 70.1

Now look at this one.
Lab note: measured Ki of COc1cc2c(cc1-c1c(C)noc1C)[nH]c1ccnc(-c3c(C)n[nH]c3C)c12 was 16.1
